These data points were gathered from ChEMBL document CHEMBL6092167.

System: Acinetobacter baumannii
Experiment: Antibacterial activity against Acinetobacter baumannii ATCC 19606 incubated for 18 to 24 hrs by broth microdilution method
Format: functional
Settings: time 18-24 hrs
Non-standard residues stand in square brackets, D forms with d. Residues, ends and D or L forms follow the SMILES beside them. pT = C[C@@H](OP(=O)(O)O)[C@H](N)C(=O)O; 2Nal = N[C@@H](Cc1ccc2ccccc2c1)C(=O)O
Property name: MIC

Molecule	Target system	Reported measurement
CC(C)C[C@H](NC(=O)[C@H](CC(C)C)NC(=O)[C@@H](NC(=O)[C@H](CCCCN)NC(=O)[C@H](Cc1ccc2ccccc2c1)NC(=O)[C@H](CCCNC(=N)N)NC(=O)[C@H](CCCCN)NC(=O)[C@H](CC(C)C)NC(=O)[C@H](CC(C)C)NC(=O)CN)[C@@H](C)O)C(N)=O (H-GLLKR[2Nal]KTLL-NH2)	Acinetobacter baumannii	32 µM

Please look up its MIC: CC(C)C[C@H](NC(=O)[C@H](CC(C)C)NC(=O)[C@@H](NC(=O)[C@H](CCCCN)NC(=O)[C@H](Cc1ccc2ccccc2c1)NC(=O)[C@H](CCCNC(=N)N)NC(=O)[C@H](CCCCN)NC(=O)[C@H](CC(C)C)NC(=O)[C@H](CC(C)C)NC(=O)CN)[C@@H](C)OP(=O)(O)O)C(N)=O (H-GLLKR[2Nal]K[pT]LL-NH2)
128 µM
